- System under test: von Hippel-Lindau disease tumor suppressor/Casein kinase I isoform delta (Homo sapiens, UniProt P48730+P40337)
- Sequence (P40337 whole entry, looked up, the tested form may be a part, canonical isoform): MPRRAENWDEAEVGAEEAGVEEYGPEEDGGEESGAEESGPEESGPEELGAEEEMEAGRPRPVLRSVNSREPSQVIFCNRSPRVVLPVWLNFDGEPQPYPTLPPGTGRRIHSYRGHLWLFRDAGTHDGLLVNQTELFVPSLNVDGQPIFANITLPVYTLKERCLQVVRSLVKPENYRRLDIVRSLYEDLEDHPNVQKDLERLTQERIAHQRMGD
- Sequence (P48730 whole entry, looked up, the tested form may be a part, canonical isoform): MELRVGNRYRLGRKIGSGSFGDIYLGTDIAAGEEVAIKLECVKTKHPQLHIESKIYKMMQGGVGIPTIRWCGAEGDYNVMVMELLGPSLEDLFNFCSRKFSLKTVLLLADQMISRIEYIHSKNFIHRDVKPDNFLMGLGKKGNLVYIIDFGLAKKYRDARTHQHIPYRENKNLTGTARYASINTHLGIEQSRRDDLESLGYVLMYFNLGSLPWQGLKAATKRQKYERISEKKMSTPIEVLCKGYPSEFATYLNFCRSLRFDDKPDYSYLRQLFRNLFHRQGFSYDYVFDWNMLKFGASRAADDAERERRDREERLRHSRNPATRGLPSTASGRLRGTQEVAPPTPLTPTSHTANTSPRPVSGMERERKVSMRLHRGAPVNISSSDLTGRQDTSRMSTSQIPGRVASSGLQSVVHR
- Test method notes: PROTAC activity at VHL/full length N-terminal Nano-luc fused CK1 delta (unknown origin) transfected in HEK293T cells incubated for 2 hrs followed by substrate addition by NanoBRET target engagement assay
- Assay type: cell-based
Threshold rule: Emax greater than or equal to 3% is label 1; below that, label 0.

Use these answered entries as a reference point.
{"columns": ["Structure", "Class assignment"],
 "data": [
  ["Cc1ncsc1-c1ccc(CNC(=O)[C@@H]2C[C@@H](O)CN2C(=O)[C@@H](NC(=O)CC2CN(C(=O)CN3CCC(F)(Cn4cnc(-c5ccc(F)cn5)c4-c4ccnc5[nH]ccc45)CC3)C2)C(C)(C)C)cc1", "label 0"],
  ["Cc1ncsc1-c1ccc(CNC(=O)[C@@H]2C[C@@H](O)CN2C(=O)[C@@H](NC(=O)CCOCCOCCOCCOCCN2CCC(F)(Cn3cnc(-c4ccc(F)cn4)c3-c3ccnc4[nH]ccc34)CC2)C(C)(C)C)cc1", "label 0"],
  ["Cc1ncsc1-c1ccc(CNC(=O)[C@@H]2C[C@@H](O)CN2C(=O)[C@@H](NC(=O)CCOCCOCCOCCN2CCC(F)(Cn3cnc(-c4ccc(F)cn4)c3-c3ccnc4[nH]ccc34)CC2)C(C)(C)C)cc1", "label 1"],
  ["Cc1ncsc1-c1ccc(CNC(=O)[C@@H]2C[C@@H](O)CN2C(=O)[C@@H](NC(=O)Cc2ccc(CNC(=O)CN3CCC(F)(Cn4cnc(-c5ccc(F)cn5)c4-c4ccnc5[nH]ccc45)CC3)cc2)C(C)(C)C)cc1", "label 0"],
  ["Cc1ncsc1-c1ccc(CNC(=O)[C@@H]2C[C@@H](O)CN2C(=O)[C@@H](NC(=O)CC2CCN(C(=O)CN3CCC(F)(Cn4cnc(-c5ccc(F)cn5)c4-c4ccnc5[nH]ccc45)CC3)CC2)C(C)(C)C)cc1", "label 0"]
]}

In the following, a different compound is considered.
(Q) Is Emax for "Cc1ncsc1-c1ccc(CNC(=O)[C@@H]2C[C@@H](O)CN2C(=O)[C@@H](NC(=O)CC2CN(C(=O)CCOCCOCCN3CCC(F)(Cn4cnc(-c5ccc(F)cn5)c4-c4ccnc5[nH]ccc45)CC3)C2)C(C)(C)C)cc1" at or above 3%?
(A) label 1

###

As shown below, each of these molecules has a reported Emax value.
- System under test: von Hippel-Lindau disease tumor suppressor/Casein kinase I isoform delta (Homo sapiens, UniProt P48730+P40337)
- Test method notes: PROTAC activity at VHL/Hibit-fused CK1 delta in human MV4-11 cells assessed as degradation of CK1-delta incubated for 6 hrs by Nano-Glo HiBiT assay relative to control
- Assay type: cell-based

Known Emax results, listed for orientation:
{"columns": ["Structure", "Metric name", "Test result"],
 "data": [
  ["Cc1ncsc1-c1ccc(CNC(=O)[C@@H]2C[C@@H](O)CN2C(=O)[C@@H](NC(=O)CCOCCOCCOCCOCCN2CCC(F)(Cn3cnc(-c4ccc(F)cn4)c3-c3ccnc4[nH]ccc34)CC2)C(C)(C)C)cc1", "Emax", "< 10%"],
  ["Cc1ncsc1-c1ccc(CNC(=O)[C@@H]2C[C@@H](O)CN2C(=O)[C@@H](NC(=O)CC2CCN(C(=O)CCOCCOCCOCCN3CCC(F)(Cn4cnc(-c5ccc(F)cn5)c4-c4ccnc5[nH]ccc45)CC3)CC2)C(C)(C)C)cc1", "Emax", "< 10%"]
]}

--- query ---
Emax recorded for this molecule, "Cc1ncsc1-c1ccc(CNC(=O)[C@@H]2C[C@@H](O)CN2C(=O)[C@@H](NC(=O)CC2CN(C(=O)CCOCCOCCOCCN3CCC(F)(Cn4cnc(-c5ccc(F)cn5)c4-c4ccnc5[nH]ccc45)CC3)C2)C(C)(C)C)cc1" , is < 10%
